Below: compounds with IC50 recorded for Serine/threonine-protein kinase mTOR (Homo sapiens) in separate published works.

Use the examples below as a reference point.
compound-smiles	system-under-test	result
CCN1CCN(c2ccc(-c3nn(CC4CCCC4)c4nc(NC)ncc34)cn2)CC1	Serine/threonine-protein kinase mTOR (Homo sapiens)	> 10 µM
CC(=O)n1nc(C)c(-c2ccc(Cl)c(Cl)c2)c1N	Serine/threonine-protein kinase mTOR (Homo sapiens)	> 100 µM
CC(=O)Nc1nc2ccc(-c3ccnc(NCc4ccccc4)n3)cc2s1	Serine/threonine-protein kinase mTOR (Homo sapiens)	> 6 µM
Cn1c(Cc2nc(N3CCOCC3)cc(=O)[nH]2)nc2cc(-c3ccccc3)ccc21	Serine/threonine-protein kinase mTOR (Homo sapiens)	> 10 µM
CC(=O)Nc1nc2ccc(-c3ccnc(OCCCN4CCOCC4)n3)cc2s1	Serine/threonine-protein kinase mTOR (Homo sapiens)	> 6 µM
O=c1cc(N2CCOCC2)nc(Cc2nc3c(-c4ccccc4)c(F)ccc3o2)[nH]1	Serine/threonine-protein kinase mTOR (Homo sapiens)	> 10 µM

Turning to the following compound.
# compound COc1ccc(Nc2ncc(CN3CCCN(S(C)(=O)=O)CC3)cc2-c2nc(C)nc(N)n2)cn1 ; its IC50 = > 10 µM
